# Test system: SK-MEL-28 melanoma
# method.summary: NCI tumour cell line growth inhibition, 384-well format; in the data active means GI50 below about 0.43 µM; inactive means the rest
Parameter call: string, one of active, inactive

Q) GET /call?item= "Nc1ccc(/C=C/C(=O)NCc2cc3cc(-c4ccc(C(=O)N5CCC(F)(F)CC5)cc4)cc(-c4ccc(F)cc4)c3o2)cn1" returns the recorded outcome of this test.
A) active

Q) GET /call?item= CCOC(=O)CCC(NC(=O)C(Cc1ccc(N(CCCl)CCCl)cc1)NC=O)C(=O)OCC (centres undefined) returns the recorded outcome of this test.
A) inactive

Q) GET /call?item= "Cn1cc(C2=C(c3cn(C4CCN(Cc5ccccn5)CC4)c4ccccc34)C(=O)NC2=O)c2ccccc21" returns the recorded outcome of this test.
A) inactive

Q) GET /call?item= "CCc1c2c(nc3ccc(OC(=O)N4CCC(N5CCCCC5)CC4)cc13)-c1cc3c(c(=O)n1C2)COC(=O)[C@]3(O)CC" returns the recorded outcome of this test.
A) inactive

---

# Tested on: M14 melanoma
# method.summary: NCI tumour cell line growth inhibition, 384-well format
assay.readout: TGI (nM)
Numbers only, in nM.

>>> quantitative_readout("Cn1cc(C2=C(c3cn(C4CCN(Cc5ccccn5)CC4)c4ccccc34)C(=O)NC2=O)c2ccccc21")
9210

# map each compound to its TGI
1. C=C1C[C@@H]2CC[C@@]34C[C@H]5O[C@H]6[C@@H](O3)[C@H]3O[C@H](CC[C@@H]3O[C@H]6[C@@H]5O4)CC(=O)C[C@@H]3[C@@H](OC)[C@@H](C[C@H](O)CN)O[C@H]3C[C@H]3O[C@@H](CC[C@@H]1O2)C[C@@H](C)C3=C
2. CCOC(=O)CCC(NC(=O)C(Cc1ccc(N(CCCl)CCCl)cc1)NC=O)C(=O)OCC (centres undefined)

A)
2720
1400

---

# System: MCF7 breast
# method.summary: NCI tumour cell line growth inhibition, 384-well format
assay.readout: TGI (µM)
Answers are plain numbers, in µM.

As a guide, the following entries are already answered.
>>> quantitative_readout("CCOC(=O)CCC(NC(=O)C(Cc1ccc(N(CCCl)CCCl)cc1)NC=O)C(=O)OCC (stereo not given)")
25.9
>>> quantitative_readout("Nc1ccc(/C=C/C(=O)NCc2cc3cc(-c4ccc(C(=O)N5CCC(F)(F)CC5)cc4)cc(-c4ccc(F)cc4)c3o2)cn1")
0.485

Turning now to a further record.
Q) Please look at this molecule and report its TGI: "CCc1c2c(nc3ccc(OC(=O)N4CCC(N5CCCCC5)CC4)cc13)-c1cc3c(c(=O)n1C2)COC(=O)[C@]3(O)CC"
A) 14.8

---

# System: HL-60(TB) leukemia
# method.summary: NCI tumour cell line growth inhibition, 384-well format
assay.readout: TGI (nM)
Answers are plain numbers, in nM.

# map each molecule to its TGI
1. CCc1c2c(nc3ccc(OC(=O)N4CCC(N5CCCCC5)CC4)cc13)-c1cc3c(c(=O)n1C2)COC(=O)[C@]3(O)CC
2. Cn1cc(C2=C(c3cn(C4CCN(Cc5ccccn5)CC4)c4ccccc34)C(=O)NC2=O)c2ccccc21
3. COc1ccc(CN2C3CC2CN(c2ccc(-c4cc(OCC(C)(C)O)cn5ncc(C#N)c45)cn2)C3)cn1

A)
3000
2540
11500

---

Field: TGI. Provide a value for each of the compounds that follow.
# Tested on: SN12C renal
# method.summary: NCI tumour cell line growth inhibition, 384-well format
Give bare numbers, in nM.

>>> quantitative_readout("Nc1ccc(/C=C/C(=O)NCc2cc3cc(-c4ccc(C(=O)N5CCC(F)(F)CC5)cc4)cc(-c4ccc(F)cc4)c3o2)cn1")
32
>>> quantitative_readout("CCOC(=O)CCC(NC(=O)C(Cc1ccc(N(CCCl)CCCl)cc1)NC=O)C(=O)OCC (centres undefined)")
2610

Turning now to a further record.
Q) Please look at this compound and report its TGI: "CCNC(=O)c1noc(-c2cc(C(C)C)c(O)cc2O)c1-c1ccc(CN2CCOCC2)cc1"
A) 28
